- assayDetails: NCI Yeast Anticancer Drug Screen. Data for the mec2-1 strain (AID 157)
- assaySetup: S. cerevisiae mec2-1 strain, at 50.0 µM, stronger effect = higher value
About 79,000 compounds went through this panel and 15% of them were active in at least one assay; those are over-represented in the sample as a whole.
readoutName: growth inhibition (%)
Write the value in % as a bare number.

compound: O=C1C(Cl)N(c2ccc([N+](=O)[O-])cc2)C1c1c[nH]c2ccccc12 (stereo unspecified)
growth inhibition, %: -38.6
--
compound: Cn1c(=O)c2c(nc(NCCNc3nc4c(c(=O)n(C)c(=O)n4C)n3C)n2C)n(C)c1=O
growth inhibition, %: -3.35
--
compound: O=C1OC(c2ccccc2)(c2ccccc2)CC1c1ccccc1 (stereo unspecified)
growth inhibition, %: 7.5

Provide measured growth inhibition value, entry: C[C@H](N)[C@@H](O)/C=C/c1ccccc1
-16.9

Give the reported value of growth inhibition for this record: Nc1cc(Cl)c([N+](=O)[O-])cc1O
18.4

Tell me measured growth inhibition for CCCCCc1ccc(C)cc1OC(C)=O please.
-1.4

Name the recorded growth inhibition of the compound listed here: NCCN1CCCCCc2ccccc21
-53

Consider the compound O=C1C=C(CCC2=CC(=O)c3ccccc3C2=O)C(=O)c2ccccc21 . State its measured growth inhibition.
-23.5

Find the measured growth inhibition of CC(=O)/C=C/CCC(=O)/C=C/C(=O)OC(CCC(=O)/C=C/C(=O)O)CC(C)=O (stereo unspecified) and report it.
-30.4

Recall and state the measured growth inhibition for COc1ccc2c(c1)C(N)CC2=O (stereo unspecified) .
7.7

Return reported growth inhibition. Input compound: BrC=C1c2ccccc2-c2ccccc21
-7.35
